Hi there, I'd appreciate the recorded signal/noise ratio for every entry that follows.
Target: T1, recombinant Ovr110-hFc encoded by Ovr110 Construct 2 (human)
T1 construct: Captured on plates by goat anti-human IgG Fc; also called Ovr110-hFc (with TM)
T1 chain: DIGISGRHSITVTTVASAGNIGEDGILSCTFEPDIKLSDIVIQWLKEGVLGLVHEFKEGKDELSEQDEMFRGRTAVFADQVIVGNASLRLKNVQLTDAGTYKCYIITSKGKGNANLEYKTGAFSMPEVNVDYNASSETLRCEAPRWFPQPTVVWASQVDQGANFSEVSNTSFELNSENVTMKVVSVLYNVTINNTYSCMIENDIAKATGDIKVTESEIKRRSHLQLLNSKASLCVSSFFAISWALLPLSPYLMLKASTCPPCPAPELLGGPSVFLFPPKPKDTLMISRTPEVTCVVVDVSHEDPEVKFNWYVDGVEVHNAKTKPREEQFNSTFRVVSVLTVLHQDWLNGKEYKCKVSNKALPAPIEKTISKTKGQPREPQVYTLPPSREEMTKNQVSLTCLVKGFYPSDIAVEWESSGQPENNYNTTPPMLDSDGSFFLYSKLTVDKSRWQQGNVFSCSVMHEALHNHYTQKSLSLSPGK
Test: competition ELISA; row = unlabeled blocking MAb; competitor = biotinylated detecting MAb Q12.2
Give bare numbers.

Sample answers from the record:
[
  {
    "BINDER": "Ovr110.Q11 (antibody, V domains shown, Mouse hybridoma MAb; also called Q11.12.3; Ovr110.Q11.12.3) VH: DVQLQESGPGLVKPSQSLSLTCSVTGYSITSGYFWSWIRQFPGNKLEWMGFISYDGTNSYNPSLKNRISITRDTSKNQFFLRLNSVTKEDTATYYCARKLLWLRFDYWGQGTTLTVSS VL: ENVLTQSPAIMSASPGEKVTMTCSASSSVSYMHWYQQKSSTSPKLWIYDTSKLASGVPGRFSGSGSGNSYSLTISSMEAEDVATYYCFQGSGYPFTFGSGTKLEIKR",
    "signal/noise ratio": 1
  },
  {
    "BINDER": "Ovr110.Q27 (antibody, IgG1, V domains shown, Mouse hybridoma MAb; also called Q27.4; Q27.2) VH: QVQPQQSGAELARPGASVKLSCKASGYTFTTYWMQWVKQRPGQGLEWIGAIYPGDGDTRYTQKFKGKATLTADKSSSTAYMQLSSLASEDSAVYYCAINWGYAMDYWGQGTSVTVSS VL: DIVLTQSHKIMSTSVGDRVSITCKASQDVRTAVAWYQQKPGQSPKLLIKSASYRYTGVPDRFSGSGSGTDFTFTISSVQAEDLAVYYCQQHYSNPTFGGGTKLEIKR",
    "signal/noise ratio": 3.1
  },
  {
    "BINDER": "Ovr110.Q12 (antibody, IgG1, V domains shown, Mouse hybridoma MAb; also called Q12.2; Ovr110.Q12.2) VH: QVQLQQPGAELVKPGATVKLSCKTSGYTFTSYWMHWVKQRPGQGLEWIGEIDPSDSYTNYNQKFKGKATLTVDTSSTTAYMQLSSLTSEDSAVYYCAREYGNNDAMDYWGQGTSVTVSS VL: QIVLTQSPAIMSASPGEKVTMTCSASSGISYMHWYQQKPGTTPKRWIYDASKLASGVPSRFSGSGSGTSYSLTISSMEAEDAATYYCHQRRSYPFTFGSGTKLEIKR",
    "signal/noise ratio": 1
  },
  {
    "BINDER": "Ovr110.Q23 (antibody, IgG1, V domains shown, Mouse hybridoma MAb; also called Q23.6) VH: QVQLQQSGAELMKPGASVKISCKATGYTFSSYWIEWVKQRPGHGLEWIGEILPGSGITKYNEKFKTKATFTADTSSNTAYMQLSSLTSEDSAVYYCARYYFGSVNFYFDCWGQGTTLTVSS VL: QAVVTQESALTTSPGETVTLTCRSSTGAVTTSNYANWVQEKPDHLFTGLIGGTDNRPPGVPARFSGSLIGDKAALTITGTQTEDEAIYFCALWYSNHWVFGGGTKLTVLG",
    "signal/noise ratio": 2.8
  }
]

Next:
Dear colleague, please send me the reported signal/noise ratio for Ovr110.Q19 (antibody, IgG1, V domains shown, Mouse hybridoma MAb; also called Q19.6; Ovr110.Q19.6) VH: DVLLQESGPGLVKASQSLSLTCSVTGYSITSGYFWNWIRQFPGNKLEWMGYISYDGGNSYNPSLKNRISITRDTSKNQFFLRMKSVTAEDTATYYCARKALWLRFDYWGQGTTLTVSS VL: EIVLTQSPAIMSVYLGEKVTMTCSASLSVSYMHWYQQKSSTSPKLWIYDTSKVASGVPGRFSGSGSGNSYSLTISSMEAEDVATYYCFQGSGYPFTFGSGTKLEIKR when you can.
1.1

All values here come from patent US20100136009A1.
